FYI, the data here is from the supplement of paper PMC10126150.

Tested on: ATP;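 note: ATP exposure 15 min at 22 °C before imaging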
Test: switch fluorescence ratio, 500 uM ATP over buffer (Cy3 cluster intensity, sum of 5 cycles each) (fold (ratio)); higher = stronger signal-on switching upon ATP binding; sequences stand for … in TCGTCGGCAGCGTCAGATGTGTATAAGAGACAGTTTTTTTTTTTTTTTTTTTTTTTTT…TC
Settings: aptamer strand: ATP DNA aptamer (quencher-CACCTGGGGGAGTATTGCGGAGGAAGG + anchor), 100 nM annealed; ATP concentration: 500 uM
Returns one of fulfilled or not fulfilled; fulfilled when switch fluorescence ratio is >= 1.

sequence-entry | discrete-label
GAGAGCGAGT | fulfilled
TAGGGAGGCG | not fulfilled
AGCGAGGGGG | fulfilled
ACATTCTACG | fulfilled
